The origin of these recorded values is paper PMC4980666.

assay: in vitro; conditions: dog
Measurement label: CC50 at 24 h

- O=C(N/N=C/c1c(O)cc(O)cc1O)c1ccccc1O: 111 µM
- O=C(N/N=C/c1cc(O)c(O)c(O)c1)c1ccccc1O: > 200 µM
- O=C(N/N=C/c1ccccc1)c1cc(O)c(O)c(O)c1: > 200 µM
- COc1cccc(/C=N/NC(=O)c2ccccc2)c1O: > 200 µM
- COc1cc(C(=O)N/N=C/c2cc(O)ccc2O)cc(OC)c1OC: > 200 µM

----------
target: influenza virus vRNPs reconstituted in HEK293T cells (Influenza A virus); test: vRNP reconstitution assay in HEK293T cells; format: cell-based
Measurement label: EC50 (µM)

- NC(=O)c1ncn([C@@H]2O[C@H](CO)[C@@H](O)[C@H]2O)n1 [Ribavirin, reference compound]: 9.4

----------
experiment: MTS cell viability assay in uninfected MDCK cells; details: dog
Measurement label: CC50 at 24 h

* NC(=O)c1ncn([C@@H]2O[C@H](CO)[C@@H](O)[C@H]2O)n1 [Ribavirin, reference compound] | > 200 µM

----------
This listing pairs compounds with measured EC50.
target: influenza virus vRNPs reconstituted in HEK293T cells (Influenza A virus); assay: vRNP reconstitution assay in HEK293T cells; assay type: cell-based; settings: read-out: vRNP reconstitution assay Activity EC50
Measurement label: EC50 (µM)

- O=C(N/N=C/c1ccc[nH]1)c1cc(O)c(O)c(O)c1 [Compound 25]: 4.1
- COc1cccc(/C=N/NC(=O)c2cc(O)c(O)c(O)c2)c1O [Compound 19]: 5.7
- CCCCCCCC(=O)N/N=C/c1cccc(O)c1O [Compound 3]: 5.9
- O=C(O)c1ccc(-c2cccc(/C=N/NC(=O)c3cc(O)c(O)c(O)c3)c2)cc1 [Compound 26]: 5.5
- COc1cc(C(=O)N/N=C/c2cc(O)ccc2O)cc(OC)c1OC [Compound 12]: 20
- NC(=O)N/N=C/c1cccc(O)c1O [Compound 1]: 107
- O=C(N/N=C/c1c(O)cc(O)cc1O)c1ccccc1O [Compound 10]: 0.4
- O=C(N/N=C/c1ccccc1)c1cc(O)c(O)c(O)c1 [Compound 13]: 6.3

----------
assay: in vitro; settings: human, vRNP reconstitution assay Cytotoxicity CC50
Measurement label: CC50 at 24 h

- O=C(N/N=C/c1cc(O)c(O)cc1O)c1cc(O)c(O)c(O)c1: > 200 µM
- O=C(N/N=C/c1ccccn1)c1cc(O)c(O)c(O)c1: > 200 µM
- O=C(N/N=C/c1ccc[nH]1)c1cc(O)c(O)c(O)c1: > 200 µM
- O=C(N/N=C/c1c(O)cc(O)cc1O)c1cc(O)c(O)c(O)c1: > 200 µM
- CCCCCCCC(=O)N/N=C/c1cccc(OC)c1O: < 50 µM
- O=C(N/N=C/c1c(O)cc(O)cc1O)c1ccccc1O: 132 µM
- COc1cc(C(=O)N/N=C/c2cc(O)ccc2O)cc(OC)c1OC: 39 µM
- O=C(N/N=C/c1cc(O)ccc1O)c1cc(O)c(O)c(O)c1: > 200 µM
- COc1ccc(O)c(/C=N/NC(=O)c2cc(O)c(O)c(O)c2)c1: > 200 µM

----------
assay: MTS cell viability assay in untransfected HEK293T cells; settings: human, vRNP reconstitution assay Cytotoxicity CC50, untransfected HEK293T cells
Measurement label: CC50 at 24 h

- NC(=O)c1ncn([C@@H]2O[C@H](CO)[C@@H](O)[C@H]2O)n1 [Ribavirin, reference compound]: > 200 µM
